Sourced from patent US20250195483A1

target: APOL1 (Homo sapiens); test: MultiTox-Fluor Multiplex Cytotoxicity Assay, tet-inducible APOL1 T-REx-HEK293 cells (G0, G1 or G2 clone not specified for Table 20); settings: tet-induced, 24 hours with compound, ratio of dead to live cells, read-out: IP50 (i.e., IC50 for cell proliferation)
Some compounds, each annotated with its measured IC50.

Some solved entries appear below for comparison.
Cc1cc2ncc(CN3CCC4(CC3)OC(C(N)=O)c3ccc(Cl)cc34)cn2n1 (stereo not drawn) [Compound 231] : 0.05 to 0.5 µM
Cc1ccc2c(c1)C1(CCN(Cc3cnn(CCS(C)(=O)=O)c3)CC1)OC2(C)C [Compound 289] : ≥ 0.5 µM
NC(=O)c1cnc(CN2CCC3(CC2)OC(C(N)=O)c2ccc(Cl)cc23)cn1 (stereo not drawn) [Compound 245] : 0.05 to 0.5 µM
C[C@H]1C[C@@]2(CCN1Cc1cnn(CC(=O)N(C)C)c1)C(=O)Nc1ccc(Cl)cc12 [Compound 76] : ≤ 0.05 µM
Cc1nc(C)c(CN2CCC3(CC2)OC(C(N)=O)c2ccc(Cl)cc23)o1 (stereo not drawn) [Compound 276] : ≥ 0.5 µM

// IC50 lookup, compound = CS(=O)(=O)CCn1cc(CN2CCC3(CC2)CNc2ccc(Cl)cc23)cn1 [Compound 305] , result: ≥ 0.5 µM

// IC50 lookup, compound = O=C1Nc2ccc(Cl)cc2C12CCN(Cc1ccc(OC(F)F)cc1)CC2 [Compound 19] , result: ≥ 0.5 µM

// IC50 lookup, compound = CC(C)n1cc(CN2CCC3(CC2)OC(C(N)=O)c2ccc(Cl)cc23)cn1 (stereo not drawn) [Compound 220] , result: ≥ 0.5 µM

// IC50 lookup, compound = NC(=O)C1OC2(CCN(Cc3cnn(-c4ccccc4)c3)CC2)c2cc(Cl)ccc21 (stereo not drawn) [Compound 191] , result: ≤ 0.05 µM

// IC50 lookup, compound = Cc1ccc(NCCn2cc(CN3CC[C@]4(C[C@@H]3C)OCCc3ccc(Cl)cc34)nn2)nn1 [Compound 159] , result: 0.05 to 0.5 µM

// IC50 lookup, compound = N#Cc1ccc(CN2CCC3(CC2)C(=O)Nc2ccc(Cl)cc23)c(F)c1 [Compound 15] , result: ≥ 0.5 µM

// IC50 lookup, compound = CS(=O)(=O)CCn1cc(CN2CCC3(CC2)C(=O)Nc2ccc(Br)cc23)cn1 [Compound 22] , result: 0.05 to 0.5 µM

// IC50 lookup, compound = Cc1ccc2c(c1)C1(CCN(Cc3cn[nH]c3)[C@@H](C)C1)OCC2 (stereo partly drawn) [Compound 97] , result: ≥ 0.5 µM

###

Molecular target: APOL1 (Homo sapiens, UniProt O14791)
Sequence (O14791 1-398): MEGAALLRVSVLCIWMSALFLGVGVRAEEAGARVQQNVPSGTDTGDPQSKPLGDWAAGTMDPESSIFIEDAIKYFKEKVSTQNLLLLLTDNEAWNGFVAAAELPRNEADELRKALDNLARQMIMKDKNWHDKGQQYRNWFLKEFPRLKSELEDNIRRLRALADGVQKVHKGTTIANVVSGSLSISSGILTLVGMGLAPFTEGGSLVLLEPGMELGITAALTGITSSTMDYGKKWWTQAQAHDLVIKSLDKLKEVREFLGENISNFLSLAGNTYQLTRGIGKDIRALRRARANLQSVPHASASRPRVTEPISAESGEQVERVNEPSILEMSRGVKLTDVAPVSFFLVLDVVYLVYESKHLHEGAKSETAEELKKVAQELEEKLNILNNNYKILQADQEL
Experiment: MultiTox-Fluor Multiplex Cytotoxicity Assay, tet-inducible APOL1 T-REx-HEK293 cells (G0, G1 or G2 clone not specified for Table 20)
Conditions: tet-induced, 24 hours with compound, ratio of dead to live cells, read-out: IP50 (i.e., IC50 for cell proliferation)
Protocol: Human embryonic kidney (HEK293) cell lines containing a tet-inducible expression system (T-REx™; Invitrogen, Carlsbad, CA) and Adeno-associated virus site 1 pAAVS1-Puro-APOL1 G0 or pAAVS1-Puro-APOL1 G1 or pAAVS1-Puro-APOL1 G2 Clones G0 DC2.13, G1 DC3.25, and G2 DC4.44 were grown in a T-225 flask at ˜90% confluency in cell growth media (DMEM, 10% Tet-free FBS, 2 mM L-glutamine, 100 Units/mL penicillin-streptomycin, 5 μg/mL blasticidin S HCl, 1 μg/mL puromycin dihydrochloride). […]
parameter_measured: IC50

Some solved entries appear below for comparison.
COCCn1cc(CN2CCC3(CC2)OC(C(N)=O)c2ccc(Cl)cc23)cn1 (stereo not drawn) : 50 to 500 nM
CS(=O)(=O)CCn1cc(CN2CCC3(CC2)C(=O)Nc2ccc(C(F)F)cc23)cn1 : 50 to 500 nM
Cc1ccc2c(c1)C1(CCN(Cc3cnn(CC(=O)N(C)C)c3)CC1)C(=O)N2 : ≥ 500 nM
NC(=O)c1cccc(CN2CCC3(CC2)OC(C(N)=O)c2ccc(Cl)cc23)c1F (stereo not drawn) : ≥ 500 nM
C[C@H]1C[C@@]2(CCN1Cc1cnn(C(F)F)c1)OCCc1ccc(Cl)cc12 : ≤ 50 nM
CNC(=O)C1OC2(CCN(Cc3cnn(-c4cccnc4)c3)CC2)c2cc(Cl)ccc21 (stereo not drawn) : ≤ 50 nM

# "C[C@H]1C[C@@]2(CCN1Cc1cnn(C[C@@H](O)C(C)(C)O)c1)OCCc1ccc(Cl)cc12" with APOL1 (Homo sapiens, UniProt O14791): IC50 is ≤ 50 nM

# "C[C@H]1C[C@@]2(CCN1Cc1cnn(CCS(C)(=O)=O)c1)OCC(F)(F)c1ccc(Cl)cc12" with APOL1 (Homo sapiens, UniProt O14791): IC50 is ≤ 50 nM

# "C[C@H]1C[C@@]2(CCN1Cc1cn(Cc3nccn(C)c3=O)nn1)OCCc1ccc(Cl)cc12" with APOL1 (Homo sapiens, UniProt O14791): IC50 is 50 to 500 nM
